Details: 313.15 K; 100 kPa; Liquid; Falling or rolling sphere viscometry
parameter_measured: viscosity (mPa·s)

>>> measured_result("CCCCCCCCC")
0.572
>>> measured_result("CCCCC1CCCCC1")
0.958
>>> measured_result("CCCCCCCCCCCC")
1.081
>>> measured_result("CCCCCCCCCCCCCC")
1.584
>>> measured_result("CCCCCCCC")
0.442
>>> measured_result("CCCCCCC")
0.337
>>> measured_result("CCCCCCCCCC")
0.709

---

Catalogue of mass density values
Details: 303.15 K; 100 kPa; Liquid; Vibrating tube method
Numbers after ± are expanded uncertainties.
parameter_measured: mass density

>>> measured_result("CCCCCCC [heptane]")
"675.41 ± 0.18 kg/m3"
>>> measured_result("CCCCCCCCCCCCCC [tetradecane]")
"756.03 ± 0.15 kg/m3"
>>> measured_result("CCCCCCCCCC [decane]")
"722.97 ± 0.16 kg/m3"
>>> measured_result("CCCCCCCC [octane]")
"694.8 ± 0.17 kg/m3"
>>> measured_result("CCCCC1CCCCC1 [butylcyclohexane]")
"791.95 ± 0.15 kg/m3"
>>> measured_result("CCCCCCCCCCCC [dodecane]")
"741.75 ± 0.16 kg/m3"
>>> measured_result("CCCCCCCCC [nonane]")
"710.1 ± 0.17 kg/m3"
